- assay-summary: Pharmacokinetic study: plasma, blood and quadriceps Givinostat levels after single oral dose (LC-MS/MS)
- Format: in vivo, mdx mice (C57BL/10ScSn-Dmd^mdx/J)
- condition-details: male, C57BL/10ScSn-Dmd^mdx/J (mdx), mouse; plasma, 37.5 mg/kg single oral dose, mdx mice
attribute-measured: AUC (ng·h/mL)
Your answer should be a plain number; it is taken to be in ng·h/mL.

AUC reported for this molecule CCN(CC)Cc1ccc2cc(COC(=O)Nc3ccc(C(=O)NO)cc3)ccc2c1 : 1510

###

- assay-summary: Pharmacokinetic study: plasma, blood and quadriceps Givinostat levels after single oral dose (LC-MS/MS)
- Format: in vivo, mdx mice (C57BL/10ScSn-Dmd^mdx/J)
- condition-details: male, C57BL/10ScSn-Dmd^mdx/J (mdx), mouse; plasma, 25 mg/kg single oral dose, mdx mice
attribute-measured: Tmax (h)
Response body: numeric value in h, unit text excluded.

Memo: CCN(CC)Cc1ccc2cc(COC(=O)Nc3ccc(C(=O)NO)cc3)ccc2c1 , reported Tmax: 1.5
